The origin of these recorded values is ChEMBL document CHEMBL1201862.

Listed molecules paired with reported GI50
Test system: SK-MEL-2
Test: NCI tumour cell line growth inhibition, 48 h
The source made the active and inactive calls. Cut-off read from the data, not from the text of the source: active = GI50 up to about 1.1 µM and inactive = higher.

COC(=O)C1C(OC(=O)c2ccccc2)CC2CCC1N2C(N)=O (stereo not given) | > 100 µM (inactive)
CCN(CC)C1Oc2cc3c(cc2C(c2cc(OC)c(O)c(OC)c2)C1C)OCO3 (stereo not given) | 18.7 µM (inactive)

query: Param readout = GI50; param system = SK-MEL-2; param query = CCOC(=O)C(NC(=O)CC)(Nc1ccc(S(=O)(=O)Nc2onc(C)c2C)cc1)C(F)(F)F (stereo not given) ; response: value
result: > 100 µM (inactive)

query: Param readout = GI50; param system = SK-MEL-2; param query = CCCCCCn1c(SC)nc(COC(=O)NC)c1COC(=O)NC ; response: value
result: 25.8 µM (inactive)

query: Param readout = GI50; param system = SK-MEL-2; param query = Cc1cc(Cl)ccc1NC(=O)C1C(=O)C(=O)N(c2ccc(Cl)cc2C)C1=O (stereo not given) ; response: value
result: 89.9 µM (inactive)
